Values from PubChem BioAssay AID743151

Quick list: IC50 per entry.
Tested on: H2122 TP53-mutant viability, CellTiter-Glo, 48 h
TEST DESCRIPTION: cell killing across TP53-mutant lines, dose response, HeLa, COLO741, H2122, CellTiter-Glo, dry powder (AID 743151)
SETTINGS: measured here: H2122 viability IC50

{"CHEMICAL STRUCTURE": "CCN1N=C(c2ccc(N(CC)CC)cc2)[C@H](C)CC1=O", "IC50": "> 10 µM"}
{"CHEMICAL STRUCTURE": "COc1cc2c(cc1OC)-c1cc(=Nc3c(C)cc(C)cc3C)n(C)c(=O)n1CC2", "IC50": "> 10 µM"}
{"CHEMICAL STRUCTURE": "C[C@H]1CC(=O)NN=C1c1ccc(N2CCOCC2)c(F)c1", "IC50": "> 10 µM"}
